Values compiled from the kinase profiling compilation of Christmann-Franck et al. (2016).

Biological target: UniProt:Q9BX84
Sequence (Q9BX84 whole entry, looked up): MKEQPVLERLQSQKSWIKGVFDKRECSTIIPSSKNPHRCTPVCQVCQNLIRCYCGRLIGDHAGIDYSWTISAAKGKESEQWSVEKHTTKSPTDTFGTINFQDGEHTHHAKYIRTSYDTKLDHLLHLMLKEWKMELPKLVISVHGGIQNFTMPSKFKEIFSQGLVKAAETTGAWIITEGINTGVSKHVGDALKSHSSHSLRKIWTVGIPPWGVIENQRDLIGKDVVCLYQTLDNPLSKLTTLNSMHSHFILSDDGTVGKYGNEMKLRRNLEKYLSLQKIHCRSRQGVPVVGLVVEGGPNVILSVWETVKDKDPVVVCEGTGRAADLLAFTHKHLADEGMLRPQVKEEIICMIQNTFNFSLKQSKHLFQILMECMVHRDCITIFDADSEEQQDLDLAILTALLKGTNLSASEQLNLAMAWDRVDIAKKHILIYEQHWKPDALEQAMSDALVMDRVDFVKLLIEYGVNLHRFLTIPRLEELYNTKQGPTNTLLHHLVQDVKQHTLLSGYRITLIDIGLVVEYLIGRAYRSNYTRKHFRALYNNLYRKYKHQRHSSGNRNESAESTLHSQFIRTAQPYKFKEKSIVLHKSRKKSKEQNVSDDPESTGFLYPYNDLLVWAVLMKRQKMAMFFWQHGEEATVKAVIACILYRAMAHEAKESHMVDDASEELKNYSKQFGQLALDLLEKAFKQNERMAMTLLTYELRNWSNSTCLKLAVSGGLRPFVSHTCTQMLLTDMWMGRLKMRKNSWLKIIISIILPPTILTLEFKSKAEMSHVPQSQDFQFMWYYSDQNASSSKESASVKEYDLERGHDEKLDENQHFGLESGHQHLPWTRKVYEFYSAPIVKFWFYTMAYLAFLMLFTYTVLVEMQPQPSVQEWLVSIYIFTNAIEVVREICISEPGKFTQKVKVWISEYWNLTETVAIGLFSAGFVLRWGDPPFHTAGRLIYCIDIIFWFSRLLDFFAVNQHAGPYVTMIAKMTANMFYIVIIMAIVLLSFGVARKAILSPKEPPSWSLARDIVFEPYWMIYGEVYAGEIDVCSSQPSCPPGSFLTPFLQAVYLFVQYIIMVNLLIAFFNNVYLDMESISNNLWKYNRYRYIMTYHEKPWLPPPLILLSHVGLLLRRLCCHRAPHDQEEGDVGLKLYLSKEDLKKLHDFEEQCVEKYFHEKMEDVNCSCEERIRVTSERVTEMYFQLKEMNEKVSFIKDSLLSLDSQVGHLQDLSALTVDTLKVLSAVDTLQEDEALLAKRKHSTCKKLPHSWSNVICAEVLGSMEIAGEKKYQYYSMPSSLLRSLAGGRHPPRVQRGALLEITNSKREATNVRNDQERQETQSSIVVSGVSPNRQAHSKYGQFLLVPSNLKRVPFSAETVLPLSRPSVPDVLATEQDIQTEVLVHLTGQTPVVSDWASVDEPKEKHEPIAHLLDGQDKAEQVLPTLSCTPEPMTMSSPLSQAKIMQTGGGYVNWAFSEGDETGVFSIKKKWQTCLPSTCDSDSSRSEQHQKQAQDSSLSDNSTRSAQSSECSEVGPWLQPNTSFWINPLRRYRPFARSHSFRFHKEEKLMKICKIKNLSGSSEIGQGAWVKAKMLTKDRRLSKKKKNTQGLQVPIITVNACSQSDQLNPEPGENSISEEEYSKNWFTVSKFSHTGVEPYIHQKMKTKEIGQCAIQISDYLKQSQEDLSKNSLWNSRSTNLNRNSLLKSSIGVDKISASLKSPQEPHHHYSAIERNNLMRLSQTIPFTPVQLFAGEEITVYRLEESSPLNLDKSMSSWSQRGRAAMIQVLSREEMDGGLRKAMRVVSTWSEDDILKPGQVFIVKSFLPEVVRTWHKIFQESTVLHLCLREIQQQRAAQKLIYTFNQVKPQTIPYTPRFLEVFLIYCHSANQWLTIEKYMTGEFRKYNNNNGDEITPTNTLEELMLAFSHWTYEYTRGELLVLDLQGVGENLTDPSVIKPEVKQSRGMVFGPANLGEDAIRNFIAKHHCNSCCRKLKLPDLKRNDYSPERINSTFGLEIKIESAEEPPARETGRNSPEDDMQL
Test: KINOMEscan competition binding
Conditions: compound 1.0 µM
Each entry below carries its reported kinase still bound, per cent of control.
# number only, unit % dropped from output

Take a look at these entries with their results.
INSERT INTO measurements (mol_smiles, assay_system, unit_annotation, measurement) VALUES
  ('Cc1cc(NC(=O)c2cccc(NC(=O)/C=C/CN(C)C)c2)ccc1Nc1nccc(-c2cccnc2)n1', 'UniProt:Q9BX84', '%', 98),
  ('CN(C)C/C=C/C(=O)Nc1cccc(C(=O)Nc2ccc(Nc3nccc(/C(C#N)=C4\Nc5ccccc5S4)n3)cc2)c1', 'UniProt:Q9BX84', '%', 100),
  ('CN(C)C/C=C/C(=O)Nc1cccc(C(=O)Nc2ccc(Nc3nccc(-c4c(-c5ccccc5)nn5ccccc45)n3)cc2)c1', 'UniProt:Q9BX84', '%', 100);

Okay, now this compound:
Ask: Write down the reported kinase still bound, per cent of control of CN(C)C/C=C/C(=O)Nc1cccc(C(=O)Nc2ccc(Nc3nccc(-c4cccnc4)n3)cc2)c1 , test system: UniProt:Q9BX84.
Result: 100

----------
Target: UniProtKB P28482
Sequence (P28482 whole entry, looked up): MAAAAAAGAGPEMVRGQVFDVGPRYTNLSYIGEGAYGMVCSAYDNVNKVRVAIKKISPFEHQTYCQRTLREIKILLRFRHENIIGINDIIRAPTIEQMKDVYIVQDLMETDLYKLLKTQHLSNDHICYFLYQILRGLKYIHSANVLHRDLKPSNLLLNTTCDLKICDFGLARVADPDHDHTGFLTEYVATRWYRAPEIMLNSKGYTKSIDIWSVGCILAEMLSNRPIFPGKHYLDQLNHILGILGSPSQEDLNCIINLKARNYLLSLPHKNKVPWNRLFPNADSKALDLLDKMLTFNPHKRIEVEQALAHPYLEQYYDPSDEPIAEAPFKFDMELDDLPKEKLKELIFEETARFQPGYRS
Assay: KINOMEscan competition binding
Settings: compound 1.0 µM
measured quantity: kinase still bound, per cent of control (%)
A number alone suffices; assume %.

Examples with their reported kinase still bound, per cent of control follow.
INSERT INTO assay_data (mol_smiles, unit_annotation, measurement) VALUES
  ('CN(C)C/C=C/C(=O)Nc1cccc(C(=O)Nc2ccc(Nc3nccc(-c4cccnc4)n3)cc2)c1', '%', 100),
  ('Cc1cc(NC(=O)c2cccc(NC(=O)/C=C/CN(C)C)c2)ccc1Nc1nccc(-c2cccnc2)n1', '%', 99),
  ('CN(C)C/C=C/C(=O)Nc1cccc(C(=O)Nc2ccc(Nc3nccc(/C(C#N)=C4\Nc5ccccc5S4)n3)cc2)c1', '%', 100);

Ask: # kinase still bound, per cent of control lookup, item CN(C)C/C=C/C(=O)Nc1cccc(C(=O)Nc2ccc(Nc3nccc(-c4c(-c5ccccc5)nn5ccccc45)n3)cc2)c1
Result: 100

----------
Molecular target: EPHA3 (human) (UniProt P29320)
Sequence (P29320 whole entry, looked up): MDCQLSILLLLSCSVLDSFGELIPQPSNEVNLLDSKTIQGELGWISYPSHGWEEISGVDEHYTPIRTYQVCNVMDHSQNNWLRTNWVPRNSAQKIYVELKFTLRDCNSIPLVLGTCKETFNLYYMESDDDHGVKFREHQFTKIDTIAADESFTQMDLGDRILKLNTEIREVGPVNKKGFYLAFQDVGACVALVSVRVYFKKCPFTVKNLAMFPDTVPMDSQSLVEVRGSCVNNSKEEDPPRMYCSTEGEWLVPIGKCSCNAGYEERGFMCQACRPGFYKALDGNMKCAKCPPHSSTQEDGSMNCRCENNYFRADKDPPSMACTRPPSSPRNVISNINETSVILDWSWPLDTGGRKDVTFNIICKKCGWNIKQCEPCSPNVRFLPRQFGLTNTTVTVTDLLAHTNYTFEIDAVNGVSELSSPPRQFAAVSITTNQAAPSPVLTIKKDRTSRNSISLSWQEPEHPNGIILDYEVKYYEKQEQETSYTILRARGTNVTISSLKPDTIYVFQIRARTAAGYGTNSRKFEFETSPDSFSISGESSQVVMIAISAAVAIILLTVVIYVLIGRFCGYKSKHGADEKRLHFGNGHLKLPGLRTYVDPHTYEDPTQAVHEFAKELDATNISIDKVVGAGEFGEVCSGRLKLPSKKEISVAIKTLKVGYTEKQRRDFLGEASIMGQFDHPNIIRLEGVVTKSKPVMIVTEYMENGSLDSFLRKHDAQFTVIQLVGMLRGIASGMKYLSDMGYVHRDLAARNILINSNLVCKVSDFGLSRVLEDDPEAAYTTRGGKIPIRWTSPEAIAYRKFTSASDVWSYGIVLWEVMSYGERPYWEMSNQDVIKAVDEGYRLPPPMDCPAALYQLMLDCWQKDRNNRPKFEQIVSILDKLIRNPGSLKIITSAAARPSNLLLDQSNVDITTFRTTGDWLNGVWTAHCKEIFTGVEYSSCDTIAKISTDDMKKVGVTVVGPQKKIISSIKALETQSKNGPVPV
Assay: KINOMEscan competition binding
Conditions: compound 1.0 µM
measured quantity: kinase still bound, per cent of control (%)
Numeric only. Scale: %

INSERT INTO measurements (mol_smiles, measured_quantity, unit_annotation, measurement) VALUES
  ('Cc1cc(NC(=O)c2cccc(NC(=O)/C=C/CN(C)C)c2)ccc1Nc1nccc(-c2cccnc2)n1', 'kinase still bound, per cent of control', '%', 67),
  ('CN(C)C/C=C/C(=O)Nc1cccc(C(=O)Nc2ccc(Nc3nccc(-c4cccnc4)n3)cc2)c1', 'kinase still bound, per cent of control', '%', 80),
  ('CN(C)C/C=C/C(=O)Nc1cccc(C(=O)Nc2ccc(Nc3nccc(/C(C#N)=C4\Nc5ccccc5S4)n3)cc2)c1', 'kinase still bound, per cent of control', '%', 100);

Here is the next item to consider.
Ask: What does the record list as kinase still bound, per cent of control for CN(C)C/C=C/C(=O)Nc1cccc(C(=O)Nc2ccc(Nc3nccc(-c4c(-c5ccccc5)nn5ccccc45)n3)cc2)c1 ?
Result: 65

----------
Quick list: kinase still bound, per cent of control per entry.
Biological target: PRKD2 (human) (UniProt Q9BZL6)
Sequence (Q9BZL6 whole entry, looked up): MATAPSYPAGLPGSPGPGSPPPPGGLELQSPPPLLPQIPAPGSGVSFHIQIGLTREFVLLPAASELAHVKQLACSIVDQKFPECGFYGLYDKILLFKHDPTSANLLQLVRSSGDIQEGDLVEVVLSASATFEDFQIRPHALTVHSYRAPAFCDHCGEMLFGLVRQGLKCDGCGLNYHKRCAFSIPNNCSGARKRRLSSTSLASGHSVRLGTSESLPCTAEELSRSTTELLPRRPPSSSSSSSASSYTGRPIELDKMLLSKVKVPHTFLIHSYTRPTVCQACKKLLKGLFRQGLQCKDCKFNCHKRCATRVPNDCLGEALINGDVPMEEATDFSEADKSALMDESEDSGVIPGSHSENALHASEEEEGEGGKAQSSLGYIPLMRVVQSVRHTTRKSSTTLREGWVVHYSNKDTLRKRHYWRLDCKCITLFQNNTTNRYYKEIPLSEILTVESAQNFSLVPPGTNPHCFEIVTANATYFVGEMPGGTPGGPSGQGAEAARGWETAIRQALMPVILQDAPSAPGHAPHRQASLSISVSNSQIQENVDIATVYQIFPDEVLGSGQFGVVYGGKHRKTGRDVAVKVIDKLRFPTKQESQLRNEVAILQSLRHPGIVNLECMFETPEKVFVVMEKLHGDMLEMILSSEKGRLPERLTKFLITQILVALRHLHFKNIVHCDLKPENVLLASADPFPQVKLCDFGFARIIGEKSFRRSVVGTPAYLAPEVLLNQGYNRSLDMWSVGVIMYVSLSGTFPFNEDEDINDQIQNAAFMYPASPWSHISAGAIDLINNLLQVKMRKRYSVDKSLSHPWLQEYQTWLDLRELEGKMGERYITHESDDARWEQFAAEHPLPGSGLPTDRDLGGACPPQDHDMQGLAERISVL
Test: KINOMEscan competition binding
Conditions: compound 1.0 µM
State the answer as a number, implicitly in %.

INSERT INTO results (mol_smiles, assay_system, measurement) VALUES
  ('CN(C)C/C=C/C(=O)Nc1cccc(C(=O)Nc2ccc(Nc3nccc(-c4cccnc4)n3)cc2)c1', 'PRKD2 (human) (UniProt Q9BZL6)', 100),
  ('CN(C)C/C=C/C(=O)Nc1cccc(C(=O)Nc2ccc(Nc3nccc(/C(C#N)=C4\Nc5ccccc5S4)n3)cc2)c1', 'PRKD2 (human) (UniProt Q9BZL6)', 100),
  ('CN(C)C/C=C/C(=O)Nc1cccc(C(=O)Nc2ccc(Nc3nccc(-c4c(-c5ccccc5)nn5ccccc45)n3)cc2)c1', 'PRKD2 (human) (UniProt Q9BZL6)', 15);

Kindly consider the entry below.
Ask: Which kinase still bound, per cent of control value belongs to Cc1cc(NC(=O)c2cccc(NC(=O)/C=C/CN(C)C)c2)ccc1Nc1nccc(-c2cccnc2)n1 ?
Result: 100
